The reported numbers originate from patent US9290485B2.

# experimental.target: human plasma kallikrein (Homo sapiens (Human), UniProt P03952)
# Sequence (P03952 whole entry, looked up): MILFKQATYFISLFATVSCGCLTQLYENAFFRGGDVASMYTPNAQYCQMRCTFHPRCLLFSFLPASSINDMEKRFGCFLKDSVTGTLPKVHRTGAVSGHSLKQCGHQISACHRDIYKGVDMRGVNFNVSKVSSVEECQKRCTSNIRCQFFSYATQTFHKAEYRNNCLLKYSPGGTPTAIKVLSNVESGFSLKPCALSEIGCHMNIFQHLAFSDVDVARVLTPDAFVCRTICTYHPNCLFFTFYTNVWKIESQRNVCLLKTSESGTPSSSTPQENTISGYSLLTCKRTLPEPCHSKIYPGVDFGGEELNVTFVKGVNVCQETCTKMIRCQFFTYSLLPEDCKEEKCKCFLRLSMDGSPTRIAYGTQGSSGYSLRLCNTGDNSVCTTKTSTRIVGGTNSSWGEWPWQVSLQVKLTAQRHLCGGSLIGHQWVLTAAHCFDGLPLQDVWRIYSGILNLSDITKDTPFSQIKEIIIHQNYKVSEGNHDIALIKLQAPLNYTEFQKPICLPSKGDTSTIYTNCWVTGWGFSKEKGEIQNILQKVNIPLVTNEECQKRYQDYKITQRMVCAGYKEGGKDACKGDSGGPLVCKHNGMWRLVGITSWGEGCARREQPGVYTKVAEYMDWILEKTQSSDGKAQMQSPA
# Sequence (P03952 whole entry partner, looked up): as the sequence (P03952 whole entry, looked up) above
# assay.setup: human plasma kallikrein 25 pM, substrate 0.5 uM, 1 hour pre-incubation at room temperature, read at t=60 min
Quick reference: IC50 of the listed items.

Study these solved cases before continuing.
Cc1cc(N)nc(C)c1CNC(=O)c1cn(Cc2cccc(N3CCCC3)c2)nn1
113 nM
Cc1ccc2cc(Cn3cc(C(=O)NCc4c(Cl)cc(N)nc4C)nn3)ccc2n1
61 nM

Consider the additional compound presented here.
Recorded result, Cc1cc(N)nc(C)c1CNC(=O)c1cn(Cc2ccc(-n3cccn3)cc2)nn1 , IC50: 108 nM

====

# experimental.target: human plasma kallikrein (Homo sapiens (Human), UniProt P03952)
# assay.setup: human plasma kallikrein 25 pM, substrate 0.5 uM, 1 hour pre-incubation at room temperature, read at t=60 min
readout.kind: pIC50
The quantity pIC50 is defined as the negative base-10 logarithm of the molar concentration.

Worked cases, answers included:
Cc1cc(N)nc(C)c1CNC(=O)c1cn(Cc2ccc(Cn3ccnc3)cc2)nn1
7.35
COc1cccc(S(=O)(=O)n2ccc(C(=O)NCc3c(C)cc(N)nc3C)c2)c1
6.61
Cc1cncc(Oc2ccc(Cn3cc(C(=O)NCc4c(C)cc(N)nc4C)cn3)cc2)n1
6.84
Cc1cc(N)nc(C)c1CNC(=O)c1cn(Cc2ccc(Cn3cccn3)cc2)cn1
9.70
COCCOc1cc(N)nc(C)c1CNC(=O)c1cnn(Cc2ccccc2)c1
6.42

Recorded result, Cc1cc(N)nc(C)c1CNC(=O)c1cnn(Cc2ccc3c(c2)CCS3(=O)=O)c1 , pIC50: 7.12

The recorded pIC50 for entry Cc1cc(N)nc(C)c1CNC(=O)c1cnn(Cc2cn3ccccc3n2)c1 equals 6.69

Noted for Cc1cc(N)nc(C)c1CNC(=O)c1ncn(Cc2ccc(-n3cccn3)cc2)n1 : its pIC50 reads 6.49

// sample Cc1cc(N)nc(C)c1CNC(=O)c1cnn(Cc2cccc(C(N)=O)c2)c1 , its pIC50 was 5.40

pIC50 reported for this compound Cc1cc(N)nc(C)c1CNC(=O)c1cnn(Cc2cc3ccsc3c(N)n2)c1 : 7.59

Sure, the documented pIC50 for Cc1cc(N)nc(C)c1CNC(=O)c1ncn(Cc2ccc(Cn3cncn3)cc2)n1 is 6.68

For this compound ( Cc1cc(N)nc(C)c1CNC(=O)c1cnn(Cc2ccc(OCC#N)cc2)c1 ), measured pIC50 is 7.05

The recorded pIC50 for entry Cc1cc(N)nc(C)c1CNC(=O)c1cnn(Cc2ccc(-c3ccncc3)cc2)c1 equals 7.52

Briefly, pIC50 measured for Cc1ccc2cc(Cn3cc(C(=O)NCc4ccc(N)nc4C)cn3)ccc2n1 : 8.15

The compound identified as Cc1nc(N)cc(OC2CCCCC2)c1CNC(=O)c1cnn(Cc2ccccc2)c1 registered its pIC50 at 6.64

For this compound ( Cc1nc(N)cc(OCC(=O)C(C)(C)C)c1CNC(=O)c1cnn(Cc2ccc3ccccc3c2)c1 ), measured pIC50 is 8.11

Entry under test: Cc1cc(N)nc(C)c1CNC(=O)c1csc(Cc2ccccc2)n1 . Its pIC50 was 5.49

GET /value?item= COCCN1CCCc2ccc(Cn3cc(C(=O)NCc4c(C)cc(N)nc4C)cn3)cc21 &field=pIC50 returns 8.00

Measured pIC50 of Cc1cc(N)nc(C)c1CNC(=O)c1cnn(C(C)c2ccccc2)c1 (stereo not shown) : 6.19

The compound listed as Cc1ccc2cc(Cc3nc(C(=O)NCc4c(C)cc(N)nc4C)co3)ccc2n1 shows pIC50 equal to 8.01

Measured pIC50, Cc1cc(N)nc(C)c1CNC(=O)c1cnn(Cc2ccc3[nH]c(C)c(C)c3c2)c1 : 8.51

Entry Cc1cc(N)nc(C)c1CNC(=O)c1cnn(Cc2ccc(F)c(F)c2)c1 — recorded pIC50 = 5.70

// sample Cc1cc(N)nc(C)c1CNC(=O)c1cnn(Cc2ccc(OC(F)(F)F)cc2)c1 , its pIC50 was 6.93
